src = patent US9624215B2

Tested on: normal human neonatal foreskin epidermal keratinocytes (NHEK-F)
Experiment: Cell proliferation inhibition test
Assay type: cell-based
Settings: Keratinocyte, 72 h, NHEK-F cells, three days incubation, ATPlite or CellTiterGlo, read-out: IC50 (concentration of the compound at which the cell count is reduced by 50%)
pIC50: −log10 of the molar value.
assay-endpoint: pIC50

Examples with their reported pIC50 follow.
>  <smiles-data>
Cc1cc2c(ccn2Cc2ccccc2)cc1Nc1ncc(C2CC2)cc1C(=O)O

>  <subject-of-test>
normal human neonatal foreskin epidermal keratinocytes (NHEK-F)

>  <pIC50>
≥ 8.00

$$$$
>  <smiles-data>
O=C(O)c1cc(C2CC2)cnc1Nc1cccc2c1ccn2Cc1ccccc1

>  <subject-of-test>
normal human neonatal foreskin epidermal keratinocytes (NHEK-F)

>  <pIC50>
7.00 to 8.00

$$$$
>  <smiles-data>
CC(C)CCn1ccc2cc(Nc3ncc(C4CC4)cc3C(=O)O)ccc21

>  <subject-of-test>
normal human neonatal foreskin epidermal keratinocytes (NHEK-F)

>  <pIC50>
≥ 8.00

$$$$
>  <smiles-data>
O=C(O)c1cc(C2CC2)cnc1Nc1ccc2cc(-c3ccccc3)ccc2c1

>  <subject-of-test>
normal human neonatal foreskin epidermal keratinocytes (NHEK-F)

>  <pIC50>
7.00 to 8.00

$$$$
>  <smiles-data>
CC(C)Cn1ccc2ccc(Nc3ncc(C4CC4)cc3C(=O)O)cc21

>  <subject-of-test>
normal human neonatal foreskin epidermal keratinocytes (NHEK-F)

>  <pIC50>
≥ 8.00

$$$$
>  <smiles-data>
CC(C)Cn1ccc2cc(Nc3ncc(C4CC4)cc3C(=O)O)cc(-c3ccccc3)c21

>  <subject-of-test>
normal human neonatal foreskin epidermal keratinocytes (NHEK-F)

>  <pIC50>
≥ 8.00

$$$$
>  <smiles-data>
O=C(O)c1cc(Cl)ccc1Nc1ccnc2c1ccn2Cc1ccccc1

>  <subject-of-test>
normal human neonatal foreskin epidermal keratinocytes (NHEK-F)

>  <pIC50>
7.00 to 8.00

$$$$
>  <smiles-data>
O=C(O)c1cc(C2CC2)ccc1Nc1ccc2c(c1)CC(=O)N2Cc1ccccc1

>  <subject-of-test>
normal human neonatal foreskin epidermal keratinocytes (NHEK-F)

>  <pIC50>
7.00 to 8.00

$$$$

Shift focus to the following entry.
*Q* Fill blank: measured pIC50 of the compound COc1ccc(-c2cn(C)c3ccc(Nc4ncc(C5CC5)cc4C(=O)O)cc23)cc1 is ____.
*A* 6.00 to 7.00

* * *

Tested on: normal human neonatal foreskin epidermal keratinocytes (NHEK-F)
Test: Cell proliferation inhibition test
Assay type: cell-based
Conditions: Keratinocyte, 72 h, NHEK-F cells, three days incubation, ATPlite or CellTiterGlo, read-out: IC50 (concentration of the compound at which the cell count is reduced by 50%)
pIC50: −log10 of the molar value.
Some compounds, each annotated with its measured pIC50.

Examples with their reported pIC50 follow.
>  <compound>
O=C(O)c1cc(Cl)ccc1Nc1ccc2c(c1)c(Cc1ccccc1)cn2Cc1ccccc1

>  <pIC50>
7.00 to 8.00

$$$$
>  <compound>
Cn1ccc2cc(Nc3ncc(C4CC4)cc3C(=O)O)cc(-c3cc(F)ccc3F)c21

>  <pIC50>
≥ 8.00

$$$$
>  <compound>
O=C(O)c1cc(C2CC2)cnc1Nc1ccc2c(c1)CCCN2Cc1ccccc1

>  <pIC50>
7.00 to 8.00

$$$$
>  <compound>
O=C(O)c1cc(C2CC2)ccc1Nc1ccc2c(ccn2CC2CC2)c1

>  <pIC50>
≥ 8.00

$$$$
>  <compound>
O=C(O)c1cc(C(F)(F)F)cnc1Nc1ccc2c(ccn2Cc2ccccc2)c1

>  <pIC50>
≥ 8.00

$$$$

*Q* Fill blank: measured pIC50 of the compound O=C(O)c1cc(C2CC2)cnc1Nc1ccc2c(ccn2Cc2cc(F)cc(F)c2)c1 is ____.
*A* ≥ 8.00

*Q* Fill blank: measured pIC50 of the compound O=C(O)c1cc(C2CC2)cnc1Nc1cccc2c1ccn2CC1CCOC1 (stereo not drawn) is ____.
*A* 7.00 to 8.00

*Q* Fill blank: measured pIC50 of the compound Cn1ccc2cc(Nc3ncc(C4CC4)cc3C(=O)O)cc(-c3ccc(F)cc3)c21 is ____.
*A* ≥ 8.00

*Q* Fill blank: measured pIC50 of the compound CCCn1ccc2c(Nc3ncc(C4CC4)cc3C(=O)O)cccc21 is ____.
*A* 7.00 to 8.00
